# assayTarget: UniProtKB Q12931
# Sequence (Q12931 60-704): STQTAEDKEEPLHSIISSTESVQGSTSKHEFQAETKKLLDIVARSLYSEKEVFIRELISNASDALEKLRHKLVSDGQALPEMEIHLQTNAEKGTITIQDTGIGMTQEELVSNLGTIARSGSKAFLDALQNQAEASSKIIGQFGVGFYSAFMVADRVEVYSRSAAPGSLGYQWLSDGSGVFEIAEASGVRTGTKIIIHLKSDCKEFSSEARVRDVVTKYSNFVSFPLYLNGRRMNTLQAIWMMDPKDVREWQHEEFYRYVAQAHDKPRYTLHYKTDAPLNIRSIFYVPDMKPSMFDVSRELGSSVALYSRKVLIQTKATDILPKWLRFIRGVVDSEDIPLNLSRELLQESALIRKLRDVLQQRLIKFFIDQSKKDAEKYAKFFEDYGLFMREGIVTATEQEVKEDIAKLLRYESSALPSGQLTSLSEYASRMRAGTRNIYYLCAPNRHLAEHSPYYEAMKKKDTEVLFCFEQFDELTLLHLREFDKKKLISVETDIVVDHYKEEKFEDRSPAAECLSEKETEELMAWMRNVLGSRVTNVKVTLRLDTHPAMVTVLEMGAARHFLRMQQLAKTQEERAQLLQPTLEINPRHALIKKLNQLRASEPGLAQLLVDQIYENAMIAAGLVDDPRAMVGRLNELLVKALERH
# experimentDescription: ADP Glo assay of TRAP1 ATPase activity
# Assay type: biochemical
# conditionDetails: read-out: ADP GLO DRC: Mean Emax
Form field: Emax (one value per entry).

Some solved entries appear below for comparison.
[[record]]
structureassmiles = "Cc1c(Br)cncc1C(=O)Nc1ccc(F)c(S(=O)(=O)Nc2ccc(Cl)cc2)c1"
experimentalreadout = "Emax"
recordedvalue = "200 to 300%"

[[record]]
structureassmiles = "COc1ccc(NC(=O)c2cccc(-n3ccnc3)c2)cc1S(=O)(=O)Nc1c(C)cccc1C"
experimentalreadout = "Emax"
recordedvalue = "200 to 300%"

[[record]]
structureassmiles = "Cc1cc(C(=O)Nc2ccc(F)c(S(=O)(=O)Nc3ccc(Cl)cc3)c2)n(Cc2ccc(F)cc2)n1"
experimentalreadout = "Emax"
recordedvalue = "123 to 159%"

[[record]]
structureassmiles = "COc1ccc(NC(=O)c2ccc3c(c2)CCN3C)cc1S(=O)(=O)Nc1c(C)cccc1C"
experimentalreadout = "Emax"
recordedvalue = "123 to 159%"

[[record]]
structureassmiles = "O=C(Nc1ccc(F)c(S(=O)(=O)Nc2ccc(Cl)cc2)c1)c1ccccc1C(=O)c1ccccc1"
experimentalreadout = "Emax"
recordedvalue = "160 to 199%"


In plain terms, COc1ccc(NC(=O)c2coc(-c3ccccc3)n2)cc1S(=O)(=O)Nc1c(C)cccc1C has a documented Emax of 160 to 199%

// field: Emax; key: COc1ccc(NC(=O)c2cccc([C@H](F)c3cccc(F)c3)c2)cc1S(=O)(=O)Nc1c(C)cccc1C ; value = 160 to 199%

Sure, the documented Emax for COc1ccc(NC(=O)c2ccc(C)nc2OC)cc1S(=O)(=O)Nc1ccc(Cl)cc1 is 160 to 199%

Per the records, this molecule ( COc1ccc(NC(=O)c2onc3c2CCCC3)cc1S(=O)(=O)Nc1c(C)cccc1C ) has Emax equal to 123 to 159%

Given item CCn1nc(C(C)C)cc1C(=O)Nc1ccc(F)c(S(=O)(=O)Nc2ccc(Cl)cc2)c1 , the value recorded as its Emax is 123 to 159%

Cited source for all entries: patent US20230174523A1
